- System: L6
- assayProtocol: Cytotoxicity against rat L6 cells after 6 days using alamar blue staining based fluorescence assay
- Type: cell-based
- appliedConditions: L6, 144 h
measurementName: pIC50
One number for each entry, as −log10 of the molar value.

As a guide, the following entries are already answered.
molecule: O=C(CN1C(=O)C(Cc2ccccc2)NC2(C1=O)C1CC3CC(C1)CC2C3)NO (racemic; form 1)
target: L6
resultNumber: 4.63
//
molecule: O=C(CN1C(=O)[C@@H](Cc2ccccc2)NC2(C1=O)C1CC3CC(C1)CC2C3)NO (stereo partly specified)
target: L6
resultNumber: 4.94
//
molecule: CN1CC(=O)N(CC(=O)NO)C(=O)C12C1CC3CC(C1)CC2C3 (stereo unspecified)
target: L6
resultNumber: 4.39
//
molecule: O=C(CN1C(=O)[C@H](Cc2ccccc2)NC2(CCCCCCC2)C1=O)NO
target: L6
resultNumber: 4.03

# input Which pIC50 is reported for this molecule? O=C(CN1C(=O)[C@H](Cc2ccccc2)NC2(C1=O)C1CC3CC(C1)CC2C3)NO (stereo partly specified)
# output 4.98

---

Provide the reported pIC50 of each item.
- Test system: Trypanosoma brucei
- assayProtocol: Antitrypanosomal activity against Trypanosoma brucei bloodstream form assessed as inhibition parasite growth
Give bare numbers, as −log10 of the molar value.

As a guide, the following entries are already answered.
molecule: O=C(CN1C(=O)C(Cc2ccccc2)NC2(C1=O)C1CC3CC(C1)CC2C3)NO (racemic; form 1)
target: Trypanosoma brucei
pIC50: 6.55

molecule: O=C(CN1C(=O)[C@H](Cc2ccccc2)NC2(C1=O)C1CC3CC(C1)CC2C3)NO (stereo partly drawn)
target: Trypanosoma brucei
pIC50: 6.48

Shifting focus to the molecule that follows.
# input Which pIC50 is reported for this molecule? O=C(CN1C(=O)[C@@H](Cc2ccccc2)NC2(C1=O)C1CC3CC(C1)CC2C3)NO (stereo partly drawn)
# output 6.97

---

- assayProtocol: Selectivity index, ratio of IC50 for rat L6 cells to IC50 for Trypanosoma brucei bloodstream forms
- Format: toxicity, cell-based
- appliedConditions: read-out: Ratio IC50
measurementName: selectivity ratio
Answers are plain numbers.

As a guide, the following entries are already answered.
molecule: O=C(CN1C(=O)C(Cc2ccccc2)NC2(C1=O)C1CC3CC(C1)CC2C3)NO (racemic; form 1)
selectivity ratio: 1400
--
molecule: O=C(CN1C(=O)[C@@H](Cc2ccccc2)NC2(C1=O)C1CC3CC(C1)CC2C3)NO (stereo partly specified)
selectivity ratio: 1300
--
molecule: CN1CC(=O)N(CC(=O)NO)C(=O)C12C1CC3CC(C1)CC2C3 (stereo unspecified)
selectivity ratio: 210
--
molecule: O=C(CN1C(=O)[C@H](Cc2ccccc2)NC2(CCCCCCC2)C1=O)NO
selectivity ratio: 3200

Shifting focus to the molecule that follows.
# input Which selectivity ratio is reported for this molecule? O=C(CN1C(=O)[C@H](Cc2ccccc2)NC2(C1=O)C1CC3CC(C1)CC2C3)NO (stereo partly specified)
# output 1500

src = ChEMBL document CHEMBL1800014
